- assayText: Pharmacokinetic evaluation in mice
- Format: in vivo, CD1 mice
- conditionSummary: plasma; mouse IV (2 mg/kg)

{"molecule": "O=C1C(Cc2ccc(Cl)c(F)c2)CCCN1c1nc2c([nH]1)COc1cnccc1-2 (stereo not shown)", "outputUnit": "ng·h/mL", "AUC(0-inf)": 2210}

---

- assayText: Pharmacokinetic evaluation in mice
- Assay type: in vivo, CD1 mice
- conditionSummary: plasma; mouse PO (10 mg/kg)

{"molecule": "O=C1C(Cc2ccc(Cl)c(F)c2)CCCN1c1nc2c([nH]1)COc1cnccc1-2 (stereo not shown)", "outputUnit": "ng·h/mL", "AUC(0-inf)": 9820}

---

- assayText: In vivo brain permeability (plasma and cerebrospinal fluid PK)
- conditionSummary: mouse; Plasma PK, CD1 mice, PO 10 mg/kg
valueType: Tmax (h)

{"compound": "O=C1C(Cc2ccc(Cl)c(F)c2)CCCN1c1nc2c([nH]1)COc1cnccc1-2 (stereo not shown) [Cpd. 25]", "quantitativeReadout": 1}

---

- experimentalTarget: SARM1 (Homo sapiens)
- Construct: 408-724 expression plasmid and vector-control customized by SinoBio; crude clarified lysate used as the enzyme
- assayText: In vitro enzyme inhibition activity (SAM-TIR lysate, NAD/ADPR by HPLC-MS/MS)
- conditionSummary: SAM-TIR lysate (SARM1 408-724) from NRK1-HEK293T cells; 25°C, 3 h with NAD
pIC50: −log10 of the molar value.
Reported values of pIC50 for individual entries

{"molecule": "O=C1C(Cc2ccc(Cl)c(F)c2)CCN1c1nc2c([nH]1)COc1cnccc1-2 (stereo not drawn)", "pIC50": "> 6.82"}
{"molecule": "O=C1C(Cc2ccc(Cl)c(F)c2)CCN1c1nc2c(ccc3cnccc32)o1 (stereo not drawn)", "pIC50": "> 6.82"}
{"molecule": "O=C1C(Cc2ccc(Cl)c(F)c2)CCN1c1nc2ccc3cnccc3c2[nH]1 (single isomer, unassigned) [Cpd. 18]", "pIC50": "> 6.82"}

---

- assayText: Pharmacokinetic evaluation in mice
- Type: in vivo, CD1 mice
- conditionSummary: plasma; mouse IV (2 mg/kg)

{"compound": "O=C1C(Cc2ccc(Cl)c(F)c2)CCCN1c1nc2c([nH]1)COc1cnccc1-2 (stereo not shown)", "outputUnit": "ng/mL", "C0": 2110}

---

- assayText: Cell membrane permeability (cell monolayer, A to B and B to A)
- Assay type: in vitro ADME
- conditionSummary: 120 min, 37°C, A to B

{"compound": "O=C1C(Cc2ccc(Cl)c(F)c2)CCCN1c1nc2c([nH]1)COc1cnccc1-2 (centres unmarked)", "Papp A→B at 2 h, 10 µM (×10⁻⁶ cm/s)": 7.56}
{"compound": "O=C1C(Cc2cc(F)c(Cl)c(F)c2)CCN1c1nc2ccc3cnccc3c2[nH]1 (centres unmarked)", "Papp A→B at 2 h, 10 µM (×10⁻⁶ cm/s)": 11}

---

- assayText: In vivo brain permeability (plasma and cerebrospinal fluid PK)
- conditionSummary: mouse; Plasma PK, CD1 mice, PO 10 mg/kg

{"compound": "O=C1C(Cc2ccc(Cl)c(F)c2)CCCN1c1nc2c([nH]1)COc1cnccc1-2 (stereo not shown) [Cpd. 25]", "half-life, min": 84}

---

- assayText: In vivo brain permeability (plasma and cerebrospinal fluid PK)
- conditionSummary: mouse; Plasma PK, CD1 mice, PO 10 mg/kg
- Method: The test compound was dissolved in the vehicle to prepare a clear solution or a homogeneous suspension. Three mice (CD1 mice) per group were orally administered (PO) at 10 mg/kg. Plasma and cerebrospinal fluid were collected at 1 h, 4 h, and 8 h after oral administration and quantitatively analyzed by LC/MS/MS. Conclusion: At least some of the compounds of the present application have reached very high levels of Cmax and AUC in cerebrospinal fluid and have good in vivo brain permeability. […]
valueType: AUC(0-inf)

{"compound": "O=C1C(Cc2ccc(Cl)c(F)c2)CCCN1c1nc2c([nH]1)COc1cnccc1-2 (stereo not shown)", "result": "9700 ng·h/mL"}

---

- assayText: Pharmacokinetic evaluation in mice
- Assay type: in vivo, CD1 mice
- conditionSummary: plasma; mouse PO (10 mg/kg)

{"compound": "O=C1C(Cc2ccc(Cl)c(F)c2)CCCN1c1nc2c([nH]1)COc1cnccc1-2 (stereo not shown)", "outputUnit": "ng/mL", "Cmax": 3000}

---

- experimentalTarget: SARM1 (Homo sapiens)
- Construct: 408-724 expression plasmid and vector-control customized by SinoBio; crude clarified lysate used as the enzyme
- Sequence (Q6SZW1 408-724 limits assumed): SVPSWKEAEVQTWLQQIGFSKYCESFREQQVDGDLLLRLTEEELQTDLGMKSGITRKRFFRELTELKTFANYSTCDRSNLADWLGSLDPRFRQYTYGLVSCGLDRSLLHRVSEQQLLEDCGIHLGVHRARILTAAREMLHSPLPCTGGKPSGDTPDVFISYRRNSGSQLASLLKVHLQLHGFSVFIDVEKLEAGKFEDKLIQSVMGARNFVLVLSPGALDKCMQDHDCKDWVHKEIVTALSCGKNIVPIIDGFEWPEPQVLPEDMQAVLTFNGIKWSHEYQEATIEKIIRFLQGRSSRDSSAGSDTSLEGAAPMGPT
- assayText: In vitro enzyme inhibition activity (SAM-TIR lysate, NAD/ADPR by HPLC-MS/MS)
- conditionSummary: SAM-TIR lysate (SARM1 408-724) from NRK1-HEK293T cells; 25°C, 3 h with NAD
Reported values of IC50 for individual entries

{"compound": "O=C1C(Cc2ccc(Cl)c(F)c2)CCCN1c1nc2ccc3cnccc3c2[nH]1 (stereo not drawn) [Cpd. 15]", "experimentalTarget": "SARM1 (Homo sapiens)", "IC50": "< 150 nM"}
{"compound": "O=C1C(Cc2ccc(Cl)c(F)c2)CCCN1c1nc2c([nH]1)COc1cnccc1-2 (stereo not drawn) [Cpd. 25]", "experimentalTarget": "SARM1 (Homo sapiens)", "IC50": "< 150 nM"}
{"compound": "C=C(CCc1ccc(Cl)cc1)C(=O)Nc1nc2ccc3cnccc3c2[nH]1 [Cpd. 11]", "experimentalTarget": "SARM1 (Homo sapiens)", "IC50": "> 1000 nM"}
{"compound": "O=C1C(Cc2cc(F)c(Cl)c(F)c2)CCCN1c1nc2ccc3cnccc3c2[nH]1 (stereo not drawn) [Cpd. 14]", "experimentalTarget": "SARM1 (Homo sapiens)", "IC50": "< 150 nM"}
{"compound": "O=C(CCc1ccc(Cl)c(F)c1)Nc1nc2ccc3cnccc3c2[nH]1 [Cpd. 9]", "experimentalTarget": "SARM1 (Homo sapiens)", "IC50": "< 150 nM"}
{"compound": "O=C1C(Cc2ccc(Cl)c(F)c2)CCN1c1nc2ccc3cnccc3c2[nH]1 (stereo not drawn) [Cpd. 5]", "experimentalTarget": "SARM1 (Homo sapiens)", "IC50": "< 150 nM"}
{"compound": "O=C1C(Cc2ccc(Cl)c(Cl)c2)CCN1c1nc2ccc3cnccc3c2[nH]1 (stereo not drawn) [Cpd. 6]", "experimentalTarget": "SARM1 (Homo sapiens)", "IC50": "150 to 500 nM"}
{"compound": "O=C1C(Cc2cc(F)c(Cl)c(F)c2)CCN1c1nc2ccc3cnccc3c2[nH]1 (stereo not drawn) [Cpd. 4]", "experimentalTarget": "SARM1 (Homo sapiens)", "IC50": "< 150 nM"}
{"compound": "O=C1C(Cc2ccc(Cl)c(F)c2)CCCN1c1nc2c(ccc3cnccc32)o1 (stereo not drawn) [Cpd. 21]", "experimentalTarget": "SARM1 (Homo sapiens)", "IC50": "150 to 500 nM"}

---

Reported values of IC50 for individual entries
- experimentalTarget: SARM1 (Homo sapiens, UniProt Q6SZW1)
- Construct: 408-724 expression plasmid and vector-control customized by SinoBio; crude clarified lysate used as the enzyme
- assayText: In vitro enzyme inhibition activity (SAM-TIR lysate, NAD/ADPR by HPLC-MS/MS)
- conditionSummary: SAM-TIR lysate (SARM1 408-724) from NRK1-HEK293T cells; 25°C, 3 h with NAD

{"compound": "O=C1C(Cc2ccc(F)c(Cl)c2)CCN1c1nc2ccc3cnccc3c2[nH]1 (stereo not drawn)", "IC50": "500 to 1000 nM"}
{"compound": "O=C1C(Cc2ccc(Cl)c(F)c2)CCN1c1nc2ccc3cnccc3c2[nH]1 (single isomer, unassigned) [Cpd. 19]", "IC50": "< 150 nM"}
{"compound": "O=C(CCc1ccc(Cl)cc1)Nc1nc2ccc3cnccc3c2[nH]1", "IC50": "< 150 nM"}
{"compound": "O=C1C(Cc2cnc(Cl)c(F)c2)CCN1c1nc2ccc3cnccc3c2[nH]1 (stereo not drawn)", "IC50": "150 to 500 nM"}
{"compound": "O=C(CCc1ccc(Cl)cc1)Nc1[nH]nc2c1ccc1cnccc12", "IC50": "500 to 1000 nM"}
{"compound": "O=C(CCc1cnc(Cl)c(F)c1)Nc1nc2ccc3cnccc3c2[nH]1", "IC50": "150 to 500 nM"}
{"compound": "O=C(CCc1ccc(Cl)c(F)c1)Nc1nc2c([nH]1)COc1cnccc1-2", "IC50": "< 150 nM"}
{"compound": "O=C1C(Cc2ccc(Cl)cc2)CCN1c1nc2ccc3cnccc3c2[nH]1 (stereo not drawn)", "IC50": "< 150 nM"}
{"compound": "O=C(CCc1ccc(Cl)c(F)c1)Nc1nc2c(ccc3cnccc32)o1", "IC50": "150 to 500 nM"}
